target: HDAC3 (Homo sapiens (Human)); assay: HDAC enzyme assay, HDAC3; format: biochemical; conditions: μM; read-out: IC50 HDAC3
Sequence (O15379 whole entry): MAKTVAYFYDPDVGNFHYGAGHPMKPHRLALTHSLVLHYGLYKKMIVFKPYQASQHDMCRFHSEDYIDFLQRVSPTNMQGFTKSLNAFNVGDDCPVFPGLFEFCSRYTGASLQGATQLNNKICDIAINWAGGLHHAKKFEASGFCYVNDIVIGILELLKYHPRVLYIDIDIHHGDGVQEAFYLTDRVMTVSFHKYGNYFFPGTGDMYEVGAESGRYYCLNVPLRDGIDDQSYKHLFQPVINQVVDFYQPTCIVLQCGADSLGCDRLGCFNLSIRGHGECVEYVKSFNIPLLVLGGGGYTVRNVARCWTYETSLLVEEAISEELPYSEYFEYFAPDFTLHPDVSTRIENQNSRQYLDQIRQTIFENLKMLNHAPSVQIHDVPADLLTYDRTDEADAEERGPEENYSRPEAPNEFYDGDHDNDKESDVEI
Sequence (Q9Y618 395-489 partner): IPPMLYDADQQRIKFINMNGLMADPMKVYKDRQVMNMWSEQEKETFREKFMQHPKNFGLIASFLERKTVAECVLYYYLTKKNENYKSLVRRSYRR
REPORTED_METRIC: IC50

Recall the recorded IC50 for `NC(=O)CCCCCCNC(=O)c1cnc(N(c2ccccc2)c2ccccc2)nc1` with HDAC3 (Homo sapiens (Human)) and state it.
> 50 µM
